target: CGRP antigen; assay: cell-based or functional assay
endpoint-name: relative activity (%) vs Ref(TEVA)
Reply with a number, then the unit it belongs to.

May I ask what relative activity (%) vs Ref(TEVA) has been recorded for hu58 (antibody, V domains shown, 1F5 HC-3/1F5 LC1-2) VH: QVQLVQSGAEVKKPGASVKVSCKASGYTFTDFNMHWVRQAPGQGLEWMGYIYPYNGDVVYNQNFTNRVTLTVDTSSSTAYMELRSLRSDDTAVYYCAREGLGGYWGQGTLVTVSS VL: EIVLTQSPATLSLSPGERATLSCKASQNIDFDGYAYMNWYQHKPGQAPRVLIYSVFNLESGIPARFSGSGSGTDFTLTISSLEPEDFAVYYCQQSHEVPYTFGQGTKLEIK ?
50%
